test system: HepG2; assay: Antiproliferative activity against human HepG2 cells incubated for 72 hrs measured by MTT assay; type: functional, cell-based; conditions: HepG2, 72 h
pIC50: −log10 of the molar value.
observation_type: pIC50

Please report pIC50 for every entry that follows.
1. CCOc1ccc([C@H]2[C@H](C(=O)OC)N[C@H](c3ccccc3)[C@]2(C)[N+](=O)[O-])cc1
2. CCOc1ccc([C@@H]2[C@@H](C(=O)OC)N[C@@H](c3ccccc3)[C@@]2(C)[N+](=O)[O-])cc1
3. CCOc1ccc([C@H]2[C@H]([N+](=O)[O-])[C@H](c3ccccc3)N[C@@H]2C(=O)OC)cc1
4. CCOc1ccc([C@@H]2[C@@](C)([N+](=O)[O-])[C@@H](c3ccccc3)N[C@@]2(C)C(=O)OC)cc1
5. CCOc1ccc([C@H]2[C@H]([N+](=O)[O-])[C@H](c3ccccc3)N[C@]2(C)C(=O)OC)cc1

### Response
1: < 4.00; 2: 4.54; 3: < 4.00; 4: < 4.00; 5: < 4.00

Please report pIC50 for every entry that follows.
1. CCOc1ccc([C@@H]2[C@@H]([N+](=O)[O-])[C@@H](c3ccccc3)N[C@@]2(C)C(=O)OC)cc1
2. CCOc1ccc([C@H]2[C@](C)([N+](=O)[O-])[C@H](c3ccccc3)N[C@]2(C)C(=O)OC)cc1
3. CCOc1ccc([C@@H]2[C@@H]([N+](=O)[O-])[C@@H](c3ccccc3)N[C@H]2C(=O)OC)cc1

### Response
< 4.00
5.78
< 4.00

* * *

tested on: A-375; test: Antiproliferative activity against human A-375 cells incubated for 72 hrs measured by MTT assay; type: functional, cell-based; details: A-375, 72 h
observation_type: IC50

Example entries begin here.
smiles_text | experimental_target | IC50
CCOc1ccc([C@H]2[C@H](C(=O)OC)N[C@H](c3ccccc3)[C@]2(C)[N+](=O)[O-])cc1 | A-375 | > 100 µM
CCOc1ccc([C@H]2[C@H]([N+](=O)[O-])[C@H](c3ccccc3)N[C@]2(C)C(=O)OC)cc1 | A-375 | > 100 µM

Please report IC50 for every entry that follows.
1. CCOc1ccc([C@H]2[C@H]([N+](=O)[O-])[C@H](c3ccccc3)N[C@@H]2C(=O)OC)cc1
2. CCOc1ccc([C@H]2[C@](C)([N+](=O)[O-])[C@H](c3ccccc3)N[C@]2(C)C(=O)OC)cc1
3. CCOc1ccc([C@@H]2[C@@](C)([N+](=O)[O-])[C@@H](c3ccccc3)N[C@@]2(C)C(=O)OC)cc1
4. CCOc1ccc([C@@H]2[C@@H](C(=O)OC)N[C@@H](c3ccccc3)[C@@]2(C)[N+](=O)[O-])cc1
5. CCOc1ccc([C@@H]2[C@@H]([N+](=O)[O-])[C@@H](c3ccccc3)N[C@H]2C(=O)OC)cc1
6. CCOc1ccc([C@@H]2[C@@H]([N+](=O)[O-])[C@@H](c3ccccc3)N[C@@]2(C)C(=O)OC)cc1

### Response
["> 100 µM", "0.24 µM", "26.8 µM", "7.42 µM", "> 100 µM", "> 100 µM"]
